target: Melanocyte-stimulating hormone receptor (Homo sapiens, UniProt Q01726); experiment: Inhibitory activity against hMC1R transfected in HEK293 cells; assay type: cell-based
Sequence (Q01726 whole entry): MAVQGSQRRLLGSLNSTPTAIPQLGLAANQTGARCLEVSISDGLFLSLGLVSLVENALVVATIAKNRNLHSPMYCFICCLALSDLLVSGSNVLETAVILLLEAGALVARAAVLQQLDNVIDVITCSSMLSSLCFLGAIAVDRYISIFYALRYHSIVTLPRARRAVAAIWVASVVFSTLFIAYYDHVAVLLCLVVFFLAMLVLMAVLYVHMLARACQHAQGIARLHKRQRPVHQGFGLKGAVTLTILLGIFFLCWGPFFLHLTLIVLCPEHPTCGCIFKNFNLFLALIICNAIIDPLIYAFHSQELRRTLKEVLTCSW
Exercise: for every item that follows, state its recorded IC50.
Record the value in µM, omitting the unit from your answer.

Sample `CCCC[C@@H]1NC(=O)CC[C@@H](C(N)=O)NC(=O)[C@H](Cc2c[nH]c3ccccc23)NC(=O)[C@H](CCCN=C(N)N)NC(=O)[C@@H](Cc2ccccc2)NC(=O)[C@H](CCC(N)=O)NC1=O` ; IC50 observed: 1

Form: compound = `CCCC[C@@H]1NC(=O)CC[C@@H](C(N)=O)NC(=O)[C@H](Cc2c[nH]c3ccccc23)NC(=O)[C@H](CCCN=C(N)N)NC(=O)[C@@H](Cc2ccc3ccccc3c2)NC(=O)[C@H](CCCC)NC1=O` ; IC50 = 3

The reported value for `CCCC[C@@H]1NC(=O)CC[C@@H](C(N)=O)NC(=O)[C@H](Cc2c[nH]c3ccccc23)NC(=O)[C@H](CCCN=C(N)N)NC(=O)[C@@H](Cc2ccccc2)NC(=O)[C@H](CCCN=C(N)N)NC1=O` in terms of IC50 is 1.4

###

target: Melanocortin receptor 4 (Homo sapiens); assay: Activity against hMC4R transfected in HEK293 cells by intracellular cAMP accumulation
reported.endpoint: EC50

Reported EC50 ( `CCCC[C@@H]1NC(=O)CC[C@@H](C(N)=O)NC(=O)[C@H](Cc2c[nH]c3ccccc23)NC(=O)[C@H](CCCN=C(N)N)NC(=O)[C@@H](Cc2ccc3ccccc3c2)NC(=O)[C@H](CC(=O)O)NC1=O` ) = > 10 µM

response.value for `CCCC[C@@H]1NC(=O)CC[C@@H](C(N)=O)NC(=O)[C@H](Cc2c[nH]c3ccccc23)NC(=O)[C@H](CCCN=C(N)N)NC(=O)[C@@H](Cc2ccc3ccccc3c2)NC(=O)[C@@H]2CCCN2C1=O` (field: EC50) = > 10 µM

Input `CCCC[C@@H]1NC(=O)CC[C@@H](C(N)=O)NC(=O)[C@H](Cc2c[nH]c3ccccc23)NC(=O)[C@H](CCCN=C(N)N)NC(=O)[C@@H](Cc2ccccc2)NC(=O)[C@H](CCC(N)=O)NC1=O` . Output EC50: > 10 µM

// `CCCC[C@@H]1NC(=O)CC[C@@H](C(N)=O)NC(=O)[C@H](Cc2c[nH]c3ccccc23)NC(=O)[C@H](CCCN=C(N)N)NC(=O)[C@@H](Cc2ccc3ccccc3c2)NC(=O)[C@H](CCCC)NC1=O` : EC50 value = 0.34 µM

Entry `CCCC[C@@H]1NC(=O)CC[C@@H](C(N)=O)NC(=O)[C@H](Cc2c[nH]c3ccccc23)NC(=O)[C@H](CCCN=C(N)N)NC(=O)[C@@H](Cc2ccccc2)NC(=O)[C@H](CC(=O)O)NC1=O` ; EC50 = > 10 µM

###

Give measured %max for each item. Keep answers brief.
target: Melanocortin receptor 4 (Homo sapiens); experiment: Activity against hMC4R transfected in HEK293 cells by intracellular cAMP accumulation; format: functional, cell-based
Expressed in %, but write only the number.

Note to self: %max recorded for `CCCC[C@@H]1NC(=O)CC[C@@H](C(N)=O)NC(=O)[C@H](Cc2c[nH]c3ccccc23)NC(=O)[C@H](CCCN=C(N)N)NC(=O)[C@@H](Cc2ccccc2)NC(=O)[C@@H](CCC(=O)O)NC1=O` was 0

// sample `CCCC[C@@H]1NC(=O)CC[C@@H](C(N)=O)NC(=O)[C@H](Cc2c[nH]c3ccccc23)NC(=O)[C@H](CCCN=C(N)N)NC(=O)[C@@H](Cc2ccc3ccccc3c2)NC(=O)[C@H](CCC(=O)O)NC1=O` , its %max was 0

Looking up `CCCC[C@@H]1NC(=O)CC[C@@H](C(N)=O)NC(=O)[C@H](Cc2c[nH]c3ccccc23)NC(=O)[C@H](CCCN=C(N)N)NC(=O)[C@@H](Cc2ccc3ccccc3c2)NC(=O)[C@H](Cc2c[nH]cn2)NC1=O` , I see its %max listed as 0

// recorded %max for `CCCC[C@@H]1NC(=O)CC[C@@H](C(N)=O)NC(=O)[C@H](Cc2c[nH]c3ccccc23)NC(=O)[C@H](CCCN=C(N)N)NC(=O)[C@@H](Cc2ccc3ccccc3c2)NC(=O)[C@H](CCCC)NC1=O` : 31

Value of %max reported for the molecule `CCCC[C@@H]1NC(=O)CC[C@@H](C(N)=O)NC(=O)[C@H](Cc2c[nH]c3ccccc23)NC(=O)[C@H](CCCN=C(N)N)NC(=O)[C@@H](Cc2ccccc2)NC(=O)[C@H]2CCCN2C1=O` is 0

###

target: UniProt:P33032; assay: Activity against hMC5R transfected in HEK293 cells by intracellular cAMP accumulation
reported.endpoint: EC50

Entry `CCCC[C@@H]1NC(=O)CC[C@@H](C(N)=O)NC(=O)[C@H](Cc2c[nH]c3ccccc23)NC(=O)[C@H](CCCN=C(N)N)NC(=O)[C@@H](Cc2ccccc2)NC(=O)[C@H](CC(=O)O)NC1=O` ; EC50 = > 10 µM

The compound `CCCC[C@@H]1NC(=O)CC[C@@H](C(N)=O)NC(=O)[C@H](Cc2c[nH]c3ccccc23)NC(=O)[C@H](CCCN=C(N)N)NC(=O)[C@@H](Cc2ccccc2)NC(=O)[C@H](C(C)C)NC1=O` showed EC50 equal to 0.18 µM

// sample `CCCC[C@@H]1NC(=O)CC[C@@H](C(N)=O)NC(=O)[C@H](Cc2c[nH]c3ccccc23)NC(=O)[C@H](CCCN=C(N)N)NC(=O)[C@@H](Cc2ccc3ccccc3c2)NC(=O)[C@H](CCC(=O)O)NC1=O` , its EC50 was > 10 µM

###

molecular target: Melanocortin receptor 4 (Homo sapiens, UniProt P32245); experiment: Inhibitory activity against hMC4R transfected in HEK293 cells
Sequence (P32245 whole entry): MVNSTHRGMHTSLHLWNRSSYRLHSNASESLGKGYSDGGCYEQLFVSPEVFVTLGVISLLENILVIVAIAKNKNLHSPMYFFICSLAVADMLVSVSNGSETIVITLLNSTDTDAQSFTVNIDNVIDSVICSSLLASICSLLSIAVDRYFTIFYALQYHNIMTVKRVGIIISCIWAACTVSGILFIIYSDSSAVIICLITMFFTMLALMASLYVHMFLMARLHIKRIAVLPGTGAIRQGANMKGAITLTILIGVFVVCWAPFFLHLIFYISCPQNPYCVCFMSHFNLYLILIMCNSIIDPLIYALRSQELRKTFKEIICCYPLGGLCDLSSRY
reported.endpoint: IC50 (nM)
The reply should be a number in nM, with the unit left off.

The measured IC50 that `CCCC[C@@H]1NC(=O)CC[C@@H](C(N)=O)NC(=O)[C@H](Cc2c[nH]c3ccccc23)NC(=O)[C@H](CCCN=C(N)N)NC(=O)[C@@H](Cc2ccccc2)NC(=O)[C@H](C(C)C)NC1=O` showed for Melanocortin receptor 4 (Homo sapiens, UniProt P32245) is 2500

Item: `CCCC[C@@H]1NC(=O)CC[C@@H](C(N)=O)NC(=O)[C@H](Cc2c[nH]c3ccccc23)NC(=O)[C@H](CCCN=C(N)N)NC(=O)[C@@H](Cc2ccccc2)NC(=O)[C@@H]2CCCN2C1=O` | System: Melanocortin receptor 4 (Homo sapiens, UniProt P32245) | IC50: 2700

# IC50 measured on Melanocortin receptor 4 (Homo sapiens, UniProt P32245) for item `CCCC[C@@H]1NC(=O)CC[C@@H](C(N)=O)NC(=O)[C@H](Cc2c[nH]c3ccccc23)NC(=O)[C@H](CCCN=C(N)N)NC(=O)[C@@H](Cc2ccccc2)NC(=O)[C@H](CCCN=C(N)N)NC1=O` = 270

###

biological target: Melanocortin receptor 5 (Homo sapiens); assay: Inhibitory activity against hMC5R transfected in HEK293 cells
Sequence (P33032 whole entry): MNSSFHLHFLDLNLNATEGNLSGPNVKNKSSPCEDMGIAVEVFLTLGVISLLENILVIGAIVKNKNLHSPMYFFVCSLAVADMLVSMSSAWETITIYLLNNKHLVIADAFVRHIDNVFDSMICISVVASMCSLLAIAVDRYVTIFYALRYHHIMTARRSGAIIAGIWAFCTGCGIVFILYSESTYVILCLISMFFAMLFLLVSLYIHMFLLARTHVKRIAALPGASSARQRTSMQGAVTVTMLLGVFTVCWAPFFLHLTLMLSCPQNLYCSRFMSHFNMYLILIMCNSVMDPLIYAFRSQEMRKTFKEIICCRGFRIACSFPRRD
reported.endpoint: pIC50
As a rule, pIC50 stands for the negative log10 of the concentration, concentration in M.

Recorded pIC50 (molecule `CCCC[C@@H]1NC(=O)CC[C@@H](C(N)=O)NC(=O)[C@H](Cc2c[nH]c3ccccc23)NC(=O)[C@H](CCCN=C(N)N)NC(=O)[C@@H](Cc2ccc3ccccc3c2)NC(=O)[C@H](C(C)C)NC1=O` ): 8.66

Looking up `CCCC[C@@H]1NC(=O)CC[C@@H](C(N)=O)NC(=O)[C@H](Cc2c[nH]c3ccccc23)NC(=O)[C@H](CCCN=C(N)N)NC(=O)[C@@H](Cc2ccc3ccccc3c2)NC(=O)[C@H](CC(=O)O)NC1=O` , I see its pIC50 listed as 6.66

Record summary for `CCCC[C@@H]1NC(=O)CC[C@@H](C(N)=O)NC(=O)[C@H](Cc2c[nH]c3ccccc23)NC(=O)[C@H](CCCN=C(N)N)NC(=O)[C@@H](Cc2ccccc2)NC(=O)[C@H](Cc2c[nH]cn2)NC1=O` : reported pIC50 = 7.00

Measured pIC50, `CCCC[C@@H]1NC(=O)CC[C@@H](C(N)=O)NC(=O)[C@H](Cc2c[nH]c3ccccc23)NC(=O)[C@H](CCCN=C(N)N)NC(=O)[C@@H](Cc2ccccc2)NC(=O)[C@H](CCC(=O)O)NC1=O` : 5.51

Form: molecule = `CCCC[C@@H]1NC(=O)CC[C@@H](C(N)=O)NC(=O)[C@H](Cc2c[nH]c3ccccc23)NC(=O)[C@H](CCCN=C(N)N)NC(=O)[C@@H](Cc2ccccc2)NC(=O)[C@H](CCCC)NC1=O` ; pIC50 = 7.15

###

target: Melanocortin receptor 3 (Homo sapiens, UniProt P41968); experiment: Activity against hMC3R transfected in HEK293 cells by intracellular cAMP accumulation
Sequence (P41968 whole entry): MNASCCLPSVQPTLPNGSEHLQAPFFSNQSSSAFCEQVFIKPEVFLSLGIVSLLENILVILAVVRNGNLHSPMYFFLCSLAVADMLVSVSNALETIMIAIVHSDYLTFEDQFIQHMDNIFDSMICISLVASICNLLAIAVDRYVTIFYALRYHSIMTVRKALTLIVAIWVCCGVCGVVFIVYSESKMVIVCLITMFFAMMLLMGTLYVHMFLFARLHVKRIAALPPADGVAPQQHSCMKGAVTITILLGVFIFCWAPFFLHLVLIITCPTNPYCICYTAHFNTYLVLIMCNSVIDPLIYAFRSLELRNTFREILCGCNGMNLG
pEC50: −log10 of the molar value.
Provide the reported pEC50 of each item.

For the compound `CCCC[C@@H]1NC(=O)CC[C@@H](C(N)=O)NC(=O)[C@H](Cc2c[nH]c3ccccc23)NC(=O)[C@H](CCCN=C(N)N)NC(=O)[C@@H](Cc2ccccc2)NC(=O)[C@H](CCCC)NC1=O` , the measured pEC50 on Melanocortin receptor 3 (Homo sapiens, UniProt P41968) was 6.52

Entry `CCCC[C@@H]1NC(=O)CC[C@@H](C(N)=O)NC(=O)[C@H](Cc2c[nH]c3ccccc23)NC(=O)[C@H](CCCN=C(N)N)NC(=O)[C@@H](Cc2ccc3ccccc3c2)NC(=O)[C@H](CCCN=C(N)N)NC1=O` under Melanocortin receptor 3 (Homo sapiens, UniProt P41968) had pEC50 of < 5.00

Value (pEC50, Melanocortin receptor 3 (Homo sapiens, UniProt P41968)) for record `CCCC[C@@H]1NC(=O)CC[C@@H](C(N)=O)NC(=O)[C@H](Cc2c[nH]c3ccccc23)NC(=O)[C@H](CCCN=C(N)N)NC(=O)[C@@H](Cc2ccc3ccccc3c2)NC(=O)[C@H](CCC(N)=O)NC1=O` = < 5.00

Simply: `CCCC[C@@H]1NC(=O)CC[C@@H](C(N)=O)NC(=O)[C@H](Cc2c[nH]c3ccccc23)NC(=O)[C@H](CCCN=C(N)N)NC(=O)[C@@H](Cc2ccccc2)NC(=O)[C@H](CC(=O)O)NC1=O` , Melanocortin receptor 3 (Homo sapiens, UniProt P41968), pEC50 = < 5.00

pEC50 of `CCCC[C@@H]1NC(=O)CC[C@@H](C(N)=O)NC(=O)[C@H](Cc2c[nH]c3ccccc23)NC(=O)[C@H](CCCN=C(N)N)NC(=O)[C@@H](Cc2ccccc2)NC(=O)[C@H](C(C)C)NC1=O` , assay on Melanocortin receptor 3 (Homo sapiens, UniProt P41968), is 7.57

`CCCC[C@@H]1NC(=O)CC[C@@H](C(N)=O)NC(=O)[C@H](Cc2c[nH]c3ccccc23)NC(=O)[C@H](CCCN=C(N)N)NC(=O)[C@@H](Cc2ccc3ccccc3c2)NC(=O)[C@H](CC(=O)O)NC1=O` on Melanocortin receptor 3 (Homo sapiens, UniProt P41968) gives pEC50 = < 5.00

The observed pEC50 for `CCCC[C@@H]1NC(=O)CC[C@@H](C(N)=O)NC(=O)[C@H](Cc2c[nH]c3ccccc23)NC(=O)[C@H](CCCN=C(N)N)NC(=O)[C@@H](Cc2ccc3ccccc3c2)NC(=O)[C@@H]2CCCN2C1=O` when tested with Melanocortin receptor 3 (Homo sapiens, UniProt P41968) stands at < 5.00

GET /values?item= `CCCC[C@@H]1NC(=O)CC[C@@H](C(N)=O)NC(=O)[C@H](Cc2c[nH]c3ccccc23)NC(=O)[C@H](CCCN=C(N)N)NC(=O)[C@@H](Cc2ccccc2)NC(=O)[C@H](CCC(=O)O)NC1=O` &system= Melanocortin receptor 3 (Homo sapiens, UniProt P41968) returns pEC50: 5.37

Field pEC50 (system: Melanocortin receptor 3 (Homo sapiens, UniProt P41968)) for entry `CCCC[C@@H]1NC(=O)CC[C@@H](C(N)=O)NC(=O)[C@H](Cc2c[nH]c3ccccc23)NC(=O)[C@H](CCCN=C(N)N)NC(=O)[C@@H](Cc2ccccc2)NC(=O)[C@@H]2CCCN2C1=O` = < 5.00

Hey, Melanocortin receptor 3 (Homo sapiens, UniProt P41968) data for `CCCC[C@@H]1NC(=O)CC[C@@H](C(N)=O)NC(=O)[C@H](Cc2c[nH]c3ccccc23)NC(=O)[C@H](CCCN=C(N)N)NC(=O)[C@@H](Cc2ccc3ccccc3c2)NC(=O)[C@H](CCCC)NC1=O` : pEC50 came out at < 5.00
